Values were extracted from PubChem BioAssay (NCATS).

- TARGET: N-terminal Xaa-Pro-Lys N-methyltransferase 1 (Homo sapiens)
- EXPERIMENTAL_DETAILS: qHTS Assay for Inhibitors of N-terminal methyltransferase 1 (NTMT1): LOPAC validation of the NTMT1 SAHH-coupled ThioGlo3 Assay (AID 1347143);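 further: SAH from peptide methylation measured as thiol fluorescence via SAHH coupling and ThioGlo3; nearly all actives have a fitted effect of over 70% in size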
- TEST_CONDITIONS: recombinant NTMT1, SAHH-coupled ThioGlo3 fluorescence; series mostly up to 114 µM
Results filed as inconclusive are left out. The source made the active and inactive calls. The call rests on the fitted dose curve; in most records, active means well fitted inhibition curve with a large enough effect; inconclusive means small, poorly fitted or top-dose-only effect; inactive means no such curve, though single readings can be large or run the other way.
Outcomes: yes = active, no = inactive

[[record]]
compound = "CCCN1C[C@H](CSC)C[C@@H]2c3cccc4[nH]cc(c34)C[C@H]21"
category_label = "no"

[[record]]
compound = "NC(N)=NC(=O)Cc1c(Cl)cccc1Cl"
category_label = "no"

[[record]]
compound = "NC(=O)c1cn(Cc2c(F)cccc2F)nn1"
category_label = "no"

[[record]]
compound = "O=C1NCN(c2ccccc2)C12CCN(CCCC(c1ccc(F)cc1)c1ccc(F)cc1)CC2"
category_label = "no"

[[record]]
compound = "NC(Cc1ccc(Cl)cc1)C(=O)O (configuration not stated)"
category_label = "no"

[[record]]
compound = "NC(N)=N/N=C/c1c(Cl)cccc1Cl"
category_label = "no"

[[record]]
compound = "CCOC(=O)C1=C(C)NC(C)=C(C(=O)OC)C1c1cccc([N+](=O)[O-])c1 (configuration not stated)"
category_label = "no"

[[record]]
compound = "C[C@@H](O)[C@H]1C(=O)N2C(C(=O)O)=C(SCCN=CN)C[C@H]12"
category_label = "no"

[[record]]
compound = "CC(N=C(NC#N)Nc1ccncc1)C(C)(C)C (configuration not stated)"
category_label = "no"

[[record]]
compound = "Cc1nc2sccn2c(=O)c1CCN1CCC(=C(c2ccc(F)cc2)c2ccc(F)cc2)CC1"
category_label = "no"

[[record]]
compound = "COc1ccc([C@@H]2Sc3ccccc3N(CCN(C)C)C(=O)[C@@H]2OC(C)=O)cc1"
category_label = "no"

[[record]]
compound = "CCCN(CCC)C(=O)C(CCC(=O)O)NC(=O)c1ccccc1 (configuration not stated)"
category_label = "no"

[[record]]
compound = "CC(C)(C)c1ccc(C(=O)CCCN2CCC(OC(c3ccccc3)c3ccccc3)CC2)cc1"
category_label = "no"

[[record]]
compound = "Cc1ccc(Cl)c(Nc2ccccc2C(=O)O)c1Cl"
category_label = "no"

[[record]]
compound = "Cc1ccc(/C(=C\\CN2CCCC2)c2ccccn2)cc1"
category_label = "no"

[[record]]
compound = "CO[C@@]1(NC(=O)CSCC#N)C(=O)N2C(C(=O)O)=C(CSc3nnnn3C)CS[C@@H]21"
category_label = "no"

[[record]]
compound = "OC(CCN1CCCCC1)(c1ccccc1)C1CCCCC1 (configuration not stated)"
category_label = "no"

[[record]]
compound = "CCN1CCc2nc(N)oc2CC1"
category_label = "yes"

[[record]]
compound = "O=C(O)CP(=O)(O)O"
category_label = "no"

[[record]]
compound = "CC(=O)OCC1=C(C(=O)O)N2C(=O)[C@@H](NC(=O)Cc3cccs3)[C@H]2SC1"
category_label = "no"

[[record]]
compound = "c1ccc2c(c1)CCCC2C1=NCCN1 (configuration not stated)"
category_label = "no"

[[record]]
compound = "CN1CCN(C2=Nc3ccccc3Oc3ccc(Cl)cc32)CC1"
category_label = "no"

[[record]]
compound = "O=c1[nH]c(=O)n([C@H]2C[C@H](O)[C@@H](CO)O2)cc1Br"
category_label = "no"

[[record]]
compound = "NC/C=C/C(=O)O"
category_label = "no"

[[record]]
compound = "FC(F)(F)c1ccccc1-n1ccnc1"
category_label = "no"

[[record]]
compound = "c1cc(CN2CCCCC2)cc(OCCCNc2nc3ccccc3s2)c1"
category_label = "yes"

[[record]]
compound = "Nc1ncn([C@@H]2O[C@H](CO)[C@@H](O)[C@H]2O)c(=O)n1"
category_label = "no"

[[record]]
compound = "NC(=O)c1ncn([C@@H]2O[C@H](CO)[C@@H](O)[C@H]2O)c1O"
category_label = "no"

[[record]]
compound = "CC(=O)OC(C)C[N+](C)(C)C (configuration not stated)"
category_label = "no"

[[record]]
compound = "CN(C)C(=O)Oc1ccc[n+](C)c1"
category_label = "no"

[[record]]
compound = "CCN(CC)CC(=O)Nc1c(C)cccc1C"
category_label = "no"

[[record]]
compound = "COC(=O)[C@H]1[C@H]2C[C@@H]3c4[nH]c5cc(OC)ccc5c4CCN3C[C@H]2C[C@@H](OC(=O)c2cc(OC)c(OC)c(OC)c2)[C@@H]1OC"
category_label = "yes"

[[record]]
compound = "Cc1nc2c([nH]1)c(=O)n(C)c(=O)n2Cc1ccco1"
category_label = "no"

[[record]]
compound = "CCC(=O)c1ccc2c(c1)N(CCCN(C)C)c1ccccc1S2"
category_label = "yes"

[[record]]
compound = "CN(C(=O)CCCOc1ccc2[nH]c(=O)ccc2c1)C1CCCCC1"
category_label = "yes"

[[record]]
compound = "CCN1CCC[C@H]1CNC(=O)c1c(O)c(Cl)cc(Cl)c1OC"
category_label = "yes"

[[record]]
compound = "NCCCNCCSP(=O)(O)O"
category_label = "no"

[[record]]
compound = "Cc1nnc(SCC2=C(C(=O)O)N3C(=O)[C@@H](NC(=O)Cn4cnnn4)[C@H]3SC2)s1"
category_label = "yes"

[[record]]
compound = "C=CCc1ccccc1OCC(O)CNC(C)C (configuration not stated)"
category_label = "no"

[[record]]
compound = "C[C@]12CCC(=O)C=C1CC[C@@H]1[C@@H]2C(=O)C[C@@]2(C)[C@H]1CC[C@]2(O)C(=O)CO"
category_label = "no"

[[record]]
compound = "CCn1ccnc1CC1COc2ccccc2O1 (configuration not stated)"
category_label = "no"

[[record]]
compound = "Nc1c2c(nc3ccccc13)CCCC2O (configuration not stated)"
category_label = "no"

[[record]]
compound = "COCCCC/C(=N\\OCCN)c1ccc(C(F)(F)F)cc1"
category_label = "no"

[[record]]
compound = "CN(C)CC[C@@H](c1ccc(Br)cc1)c1ccccn1"
category_label = "no"

[[record]]
compound = "CCOC(=O)C1=C(C)NC(C)=C(C(=O)OC)C1c1cccc(Cl)c1Cl (configuration not stated)"
category_label = "yes"

[[record]]
compound = "CN(C)CCCN1c2ccccc2Sc2ccccc21"
category_label = "yes"

[[record]]
compound = "CN1C[C@H](C(=O)N[C@]2(C)O[C@@]3(O)[C@@H]4CCCN4C(=O)[C@H](Cc4ccccc4)N3C2=O)C[C@@H]2c3cccc4[nH]cc(c34)C[C@H]21"
category_label = "no"


###

- EXPERIMENTAL_DETAILS: Cell Viability - LYMP2-020 (AID 986);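 further: cells exposed to compound for 24 h at 37 °C; nearly all actives have a fitted effect of over 55% in size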
- TEST_CONDITIONS: series mostly up to 92.2 µM
Inconclusive results are not listed. The source made the active and inactive calls. Calls come from the whole dose curve; as a rule, active = well fitted cell-killing curve with a large enough effect; inconclusive = small, poorly fitted or top-dose-only effect; inactive = flat fitted curve, though single readings scatter.
Outcomes: Y (active), N (inactive)

[[record]]
compound_structure_string = "Nc1nc(N)c2nc(-c3ccccc3)c(N)nc2n1"
category_label = "N"

[[record]]
compound_structure_string = "Nc1ncn([C@@H]2O[C@H](CO)[C@@H](O)[C@H]2O)c(=O)n1"
category_label = "Y"

[[record]]
compound_structure_string = "CCCCOCCOCCOCc1cc2c(cc1CCC)OCO2"
category_label = "N"

[[record]]
compound_structure_string = "O=c1[nH]c(=O)n([C@H]2C[C@H](O)[C@@H](CO)O2)cc1Br"
category_label = "N"

[[record]]
compound_structure_string = "NC(=Nc1ccccc1)Nc1ccccc1"
category_label = "N"


###

- System: CP252
- EXPERIMENTAL_DETAILS: qHTS profiling for inhibitors of Plasmodium falciparum proliferation (AID 504749); further: nearly all actives have a fitted effect of over 60% in size
- TEST_CONDITIONS: P. falciparum in erythrocytes, SYBR Green DNA, 72 h; series mostly up to 28.7 µM
Results filed as inconclusive are left out. Calls of active or inactive are those of the source. Calls follow the shape of the dose curve; as a rule, active = well fitted inhibition curve with a large enough effect; inconclusive = small, poorly fitted or top-dose-only effect; inactive = flat fitted curve, though single readings scatter.
Outcomes: 1.0 for active, 0.0 for inactive

[[record]]
compound_structure_string = "NC(=Nc1ccccc1)Nc1ccccc1"
category_label = 0.0

[[record]]
compound_structure_string = "C[N+](C)(C)CCOC(N)=O"
category_label = 0.0

[[record]]
compound_structure_string = "Cc1nc2ccccn2c(=O)c1CCN1CCC(C(=O)c2ccc(F)cc2)CC1"
category_label = 0.0

[[record]]
compound_structure_string = "O=C1NCN(c2ccccc2)C12CCN(CCCC(c1ccc(F)cc1)c1ccc(F)cc1)CC2"
category_label = 1.0

[[record]]
compound_structure_string = "COc1cc2c(cc1OC)-c1cc(=Nc3c(C)cc(C)cc3C)n(C)c(=O)n1CC2"
category_label = 1.0

[[record]]
compound_structure_string = "Cc1ccc(S(=O)(=O)NC(=O)NN2CCCCCC2)cc1"
category_label = 0.0

